- TARGET: HDAC2 (Homo sapiens, UniProt Q92769)
- Sequence (Q92769 whole entry): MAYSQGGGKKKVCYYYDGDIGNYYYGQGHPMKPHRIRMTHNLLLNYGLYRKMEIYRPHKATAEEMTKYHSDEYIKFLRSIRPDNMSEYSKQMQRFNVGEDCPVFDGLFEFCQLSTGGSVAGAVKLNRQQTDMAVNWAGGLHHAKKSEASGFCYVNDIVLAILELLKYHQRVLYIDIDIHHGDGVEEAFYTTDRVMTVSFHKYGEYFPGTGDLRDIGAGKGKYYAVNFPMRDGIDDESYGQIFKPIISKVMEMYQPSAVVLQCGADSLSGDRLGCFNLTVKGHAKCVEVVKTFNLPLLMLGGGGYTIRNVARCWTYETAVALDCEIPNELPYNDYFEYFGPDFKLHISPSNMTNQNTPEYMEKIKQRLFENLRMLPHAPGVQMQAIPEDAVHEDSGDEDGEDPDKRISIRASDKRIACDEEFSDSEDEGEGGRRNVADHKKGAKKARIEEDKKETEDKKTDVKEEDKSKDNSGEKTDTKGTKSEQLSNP
MEASURED PARAMETER: IC50

Supply reported IC50 belonging to this compound: CS(=O)(=O)N(Cc1ccc(-c2nnc(C(F)F)o2)cn1)c1cccc(Cl)c1 [compound 8]
> 20 µM

====

Target protein (sequence): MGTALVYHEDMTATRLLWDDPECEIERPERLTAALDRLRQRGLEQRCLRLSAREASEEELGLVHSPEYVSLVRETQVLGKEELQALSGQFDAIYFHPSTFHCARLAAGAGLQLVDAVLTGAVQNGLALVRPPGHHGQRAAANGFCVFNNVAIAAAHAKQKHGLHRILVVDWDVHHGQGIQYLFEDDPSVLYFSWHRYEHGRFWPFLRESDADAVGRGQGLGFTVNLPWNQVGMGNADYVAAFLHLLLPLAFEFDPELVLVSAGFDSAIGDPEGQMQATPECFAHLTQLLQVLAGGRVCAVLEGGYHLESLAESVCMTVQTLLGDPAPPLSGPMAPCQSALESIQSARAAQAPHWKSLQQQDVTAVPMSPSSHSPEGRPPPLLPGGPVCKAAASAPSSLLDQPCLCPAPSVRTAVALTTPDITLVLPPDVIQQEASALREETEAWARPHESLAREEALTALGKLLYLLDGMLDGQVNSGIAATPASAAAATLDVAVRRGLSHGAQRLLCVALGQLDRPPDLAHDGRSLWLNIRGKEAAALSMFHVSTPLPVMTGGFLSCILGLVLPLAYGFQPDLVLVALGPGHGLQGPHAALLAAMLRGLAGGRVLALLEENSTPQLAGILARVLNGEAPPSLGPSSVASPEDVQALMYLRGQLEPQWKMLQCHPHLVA
pIC50: −log10 of the molar value.
MEASURED PARAMETER: pIC50

Return reported pIC50. Input compound: `CS(=O)(=O)N(Cc1ccc(-c2nnc(C(F)F)o2)cn1)c1cccc(Cl)c1`
< 4.70
